- EXPERIMENTAL_SYSTEM: human serum protease thrombin (human, UniProt P00734 328-622)
- METHOD_DESCRIPTION: phage binding to protein on beads (data not shown)
ASSAY_READOUT: binding result

1) RWCPKYTLECMKDSDCLAECVCLEHGYCGAGPSYIEGRIVGSA (designed binder, not shown: mature gene III protein of M13 phage) [CMTI-I analogue 233, phage isolate]	no binding
2) RWCPKSTLGCMKDSDCLAECVCLEHGYCGAGPSYIEGRIVGSA (designed binder, not shown: mature gene III protein of M13 phage) [CMTI-I analogue 222, phage isolate]	no binding
3) RWCPKTSLGCMKDSDCLAECVCLEHGYCGAGPSYIEGRIVGSA (designed binder, not shown: mature gene III protein of M13 phage) [CMTI-I analogue 101, phage isolate]	no binding
